- TARGET_OF_ASSAY: acetylcholine receptor
- METHOD_NOTES: SPR, peptide at 10 uM, acetylcholine receptor immobilized on chip
Here, each record is paired with measured Binding affinity (RU) data.
Express it in RU; write the number only.

# example entries with known answers
BINDER: RETFK [5mer-935]
Binding affinity (RU): 32

BINDER: KFCPR [5mer-616]
Binding affinity (RU): 15

BINDER: RPSPR [5mer-905]
Binding affinity (RU): 30

query: Consider the binder KCTDK [5mer-612] and give its recorded Binding affinity (RU).
result: 23

query: Provide Binding affinity (RU) value for the following binder: KNHHR [5mer-941]
result: 21
